For reference, the following Ki results for 5-hydroxytryptamine receptor 2C (Homo sapiens, UniProt P28335) were taken from various sources.
# unit: nM | format: bare number

Answered examples (3):
compound	unit-of-measure	measured-result
COc1cccc(N2CCN(CCCCNC(=O)c3c[nH]c4ccccc34)CC2)c1	nM	602
COc1ccc(N2CC=C(c3ccc(Cl)c(Cl)c3)C2=O)cc1OCCN1CCCC1	nM	3.98
Cc1cc2c(cc1C(F)(F)F)N(C(=O)Nc1ccc(OCc3ccccn3)nn1)CC2	nM	5.01

Fill in reported Ki for this entry: COc1cc(OC)c(C(=O)CCCCN2CCC3(CC2)NC(=O)NC3=O)cc1NS(=O)(=O)c1ccc(F)cc1
10

Fill in reported Ki for this entry: Nc1cc(Br)ccc1C(=O)CCCN1CC[C@H]2[C@@H](C1)c1cccc3c1N2CCCS3
112

Fill in reported Ki for this entry: Cc1cccc(N2CCN(CCCCNC(=O)c3cc4ccccc4cn3)CC2)c1
169

Fill in reported Ki for this entry: COc1ccc(N2CCC(c3ccc(Cl)c(Cl)c3)C2=O)cc1OCCN1CCC(C)CC1 (centres undefined)
12.6

Fill in reported Ki for this entry: O=C(NC/C=C/CN1CCN(c2cccc(Cl)c2Cl)CC1)c1ccc(-c2cccc[n+]2[O-])cc1
74.3

* * *

target-or-system: 5-hydroxytryptamine receptor 2C (Homo sapiens, UniProt P28335)
Sequence (P28335 whole entry): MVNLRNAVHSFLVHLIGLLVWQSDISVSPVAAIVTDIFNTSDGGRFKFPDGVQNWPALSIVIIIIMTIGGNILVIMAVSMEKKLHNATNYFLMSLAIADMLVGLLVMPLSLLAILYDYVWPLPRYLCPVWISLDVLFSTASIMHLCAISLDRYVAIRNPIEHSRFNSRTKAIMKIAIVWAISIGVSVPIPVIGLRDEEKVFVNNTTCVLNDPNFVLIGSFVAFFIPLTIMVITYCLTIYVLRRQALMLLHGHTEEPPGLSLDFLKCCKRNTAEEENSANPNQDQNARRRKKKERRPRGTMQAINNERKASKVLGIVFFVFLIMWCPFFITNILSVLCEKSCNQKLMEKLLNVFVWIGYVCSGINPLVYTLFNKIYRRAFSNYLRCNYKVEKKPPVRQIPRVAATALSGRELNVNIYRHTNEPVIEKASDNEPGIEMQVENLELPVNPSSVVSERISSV
For reference, the following pKi results for 5-hydroxytryptamine receptor 2C (Homo sapiens, UniProt P28335) were taken from various sources.
Quick note: pKi values are minus log10 of concentrations in mol/L.

Answered examples (2):
smiles-input	pKi
Nc1cc(F)ccc1C(=O)CCCN1CC[C@@H]2[C@H](C1)c1cccc3c1N2CCCC3	6.87
CCOC(=O)c1cccc(NC2=NC(N(C)C)=NC3(CCCCC3)N2)c1	5.92

Now examine the next entry.
Fill in reported pKi for this entry: COc1cc2c(cc1C(F)(F)F)N(C(=O)Nc1cnc(Oc3cccnc3C)cc1C)CC2
6.70

* * *

For reference, the following Ki results for 5-hydroxytryptamine receptor 2C (Homo sapiens, UniProt P28335) were taken from various sources.
target-or-system: 5-hydroxytryptamine receptor 2C (Homo sapiens, UniProt P28335)
Sequence (P28335 whole entry): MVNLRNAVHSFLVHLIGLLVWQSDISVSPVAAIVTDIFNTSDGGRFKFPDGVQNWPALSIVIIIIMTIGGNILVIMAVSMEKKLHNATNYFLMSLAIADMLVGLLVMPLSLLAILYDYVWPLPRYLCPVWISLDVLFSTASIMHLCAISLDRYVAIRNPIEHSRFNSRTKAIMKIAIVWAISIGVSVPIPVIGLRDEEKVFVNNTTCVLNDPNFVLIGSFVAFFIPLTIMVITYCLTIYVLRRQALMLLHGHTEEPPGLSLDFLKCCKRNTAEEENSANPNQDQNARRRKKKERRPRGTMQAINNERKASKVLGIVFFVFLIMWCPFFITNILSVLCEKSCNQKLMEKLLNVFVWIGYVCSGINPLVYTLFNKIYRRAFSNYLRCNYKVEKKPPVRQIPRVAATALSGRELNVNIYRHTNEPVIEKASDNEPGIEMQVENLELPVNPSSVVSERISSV
# unit: nM | format: bare number

molecule	unit-of-measure	Ki
CC(=O)Nc1ccc(OCCCN2CCC(c3noc4cc(F)ccc34)CC2)cc1	nM	1990

Fill in reported Ki for this entry: Fc1ccc2[nH]c(-c3ccccc3)c([C@@H]3CNCC[C@H]3F)c2c1
500

Fill in reported Ki for this entry: COc1ccc(S(=O)(=O)n2cc(C)c3cc(Cl)ccc32)cc1NC1CCN(C)CC1
3120

Fill in reported Ki for this entry: COc1ccc(N2Cc3cc(Cl)c(Cl)cc3C2=O)cc1OCCN1CCC(C)CC1
5.01

Fill in reported Ki for this entry: CN(C)c1ccc2on(C[C@@H]3C[C@H]4c5ccccc5Oc5ccc(Br)cc5[C@H]4O3)c2c1
157

Fill in reported Ki for this entry: CCCNCc1ccc(Cl)c(-c2ccccc2OC)c1
200

Fill in reported Ki for this entry: O=C(c1ccc(F)cc1)C1CCN(CCc2cccc(I)c2)CC1
16.6

Fill in reported Ki for this entry: CC(=O)Nc1cc(F)ccc1C(=O)CCCN1CC[C@H]2[C@@H](C1)c1cccc3c1N2CCCS3
222

Fill in reported Ki for this entry: O[C@@H]1[C@H](O)[C@@H]2C[C@@H]2[C@H]1n1cnc2c(NC(C3CCC3)C3CCC3)nc(Cl)nc21
8320
